Reference source: PubChem BioAssay AID2060887

Test system: 782815-120-R-J1-PDC complex spheroid viability;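 further: spheroids exposed to compounds for 7 days before reading; 100% = DMSO vehicle control viability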
Test: Anticancer human tumor 782815-120-R-J1-PDC patient-derived colon adenocarcinoma cell line growth inhibition [RAS]
Conditions: second compound 0.01 µM; first compound 0.00316 µM; hits give low values
Each record here notes measured viability, T/C.

molecule	target or system	unit abbreviation	viability, T/C
CCN1CCN(Cc2ccc(Nc3ncc(F)c(-c4cc(F)c5nc(C)n(C(C)C)c5c4)n3)nc2)CC1 + C=CC(=O)N1CCN(c2nc(OCC3CCCN3C)nc3c(F)c(-c4nc(N)cc(C)c4C(F)(F)F)c(Cl)cc23)C(C)C1	782815-120-R-J1-PDC complex spheroid viability	%	98.9
CC(C)n1nc(-c2ccc3oc(N)nc3c2)c2c(N)ncnc21 + C=CC(=O)N1CCN(c2nc(OCC3CCCN3C)nc3c(F)c(-c4nc(N)cc(C)c4C(F)(F)F)c(Cl)cc23)C(C)C1	782815-120-R-J1-PDC complex spheroid viability	%	100
O=C(c1ccc(F)c(F)c1Nc1ccc(I)cc1F)N1CC(O)([C@@H]2CCCCN2)C1 + C=CC(=O)N1CCN(c2nc(OCC3CCCN3C)nc3c(F)c(-c4nc(N)cc(C)c4C(F)(F)F)c(Cl)cc23)C(C)C1	782815-120-R-J1-PDC complex spheroid viability	%	93.1
C=CC(=O)Nc1cc(Nc2nccc(-c3cn(C)c4ccccc34)n2)c(OC)cc1N(C)CCN(C)C + C=CC(=O)N1CCN(c2nc(OCC3CCCN3C)nc3c(F)c(-c4nc(N)cc(C)c4C(F)(F)F)c(Cl)cc23)C(C)C1	782815-120-R-J1-PDC complex spheroid viability	%	91.9
Nc1ccn(C2OC(CO)C(O)C2(F)F)c(=O)n1 (stereo not given) + C=CC(=O)N1CCN(c2nc(OCC3CCCN3C)nc3c(F)c(-c4nc(N)cc(C)c4C(F)(F)F)c(Cl)cc23)C(C)C1	782815-120-R-J1-PDC complex spheroid viability	%	93.9
